Experiment: Clearance in dog after iv administration
Type: ADME, organism-based, Canis lupus familiaris
Settings: in vivo
So basically, if clearance comes in under 20 mL/min/kg it's Fulfilled, and if it's 20 mL/min/kg or more it's Not fulfilled.

Solved cases below.
{"columns": ["Molecule", "Group Label"],
 "data": [
  ["CO[C@@]1(NC(=O)C2SC(=C(C(N)=O)C(=O)O)S2)C(=O)N2C(C(=O)O)=C(CSc3nnnn3C)CS[C@@H]21 (stereo partly drawn) [CEFOTETAN]", "Fulfilled"],
  ["O=C1CN=C(c2ccccc2Cl)c2cc([N+](=O)[O-])ccc2N1 [CLONAZEPAM]", "Fulfilled"],
  ["O=C(O)Cc1ccccc1Nc1c(Cl)cccc1Cl [DICLOFENAC]", "Fulfilled"],
  ["CO[C@@]1(NC(=O)C(C(=O)[O-])c2ccc(O)cc2)C(=O)N2C(C(=O)[O-])=C(CSc3nnnn3C)CO[C@@H]21.[Na+].[Na+] (stereo partly drawn) [MOXALACTAM DISODIUM]", "Fulfilled"],
  ["Cc1cn([C@H]2C[C@H](N=[N+]=[N-])[C@@H](CO)O2)c(=O)[nH]c1=O [ZIDOVUDINE]", "Fulfilled"],
  ["N[C@@H](Cc1ccc(O)c(O)c1)C(=O)O [LEVODOPA]", "Fulfilled"],
  ["COCCc1ccc(OCC(O)CNC(C)C)cc1 (stereo not drawn) [METOPROLOL]", "Not fulfilled"],
  ["CC[C@H]1OC(=O)[C@H](C)[C@@H](O[C@H]2C[C@@](C)(OC)[C@@H](O)[C@H](C)O2)[C@H](C)[C@@H](O[C@@H]2O[C@H](C)C[C@H](N(C)C)[C@H]2O)[C@](C)(O)C[C@@H](C)C(=O)[C@H](C)[C@@H](O)[C@]1(C)O [ERYTHROMYCIN]", "Not fulfilled"],
  ["CCOC(=O)C1(c2ccccc2)CCN(C)CC1 [MEPERIDINE]", "Not fulfilled"],
  ["CCC1(C)CC(=O)NC1=O (stereo not drawn) [ETHOSUXIMIDE]", "Fulfilled"]
]}

Input COc1cccc2c1C(=O)c1c(O)c3c(c(O)c1C2=O)C[C@@](O)(C(=O)CO)C[C@@H]3O[C@H]1C[C@H](N)[C@H](O)[C@H](C)O1 [DOXORUBICIN] ; condition: clearance strictly below 20 mL/min/kg. Does it hold?
Fulfilled

Input NC(=O)c1cc[n+](COC[n+]2ccccc2/C=N/O)cc1 [HI-6] ; condition: clearance strictly below 20 mL/min/kg. Does it hold?
Fulfilled

Input Nc1nc(/C(=N/O)C(=O)N[C@@H]2C(=O)N3C(C(=O)O)=C(/C=C4\CCN(CC(F)(F)F)C4=O)CS[C@H]23)cs1 [RO 25-6833] ; condition: clearance strictly below 20 mL/min/kg. Does it hold?
Fulfilled

Input CO/N=C(\C(=O)N[C@@H]1C(=O)N2C(C(=O)[O-])=C(C[n+]3ccn4ncccc43)CS[C@H]12)c1nsc(N)n1 [CEFOZOPRAN] ; condition: clearance strictly below 20 mL/min/kg. Does it hold?
Fulfilled

Input CN1CCC[C@H]1c1cccnc1 [NICOTINE] ; condition: clearance strictly below 20 mL/min/kg. Does it hold?
Not fulfilled
